pEC50 reference
targetOfAssay: UniProt Q15077
Sequence (Q15077 whole entry): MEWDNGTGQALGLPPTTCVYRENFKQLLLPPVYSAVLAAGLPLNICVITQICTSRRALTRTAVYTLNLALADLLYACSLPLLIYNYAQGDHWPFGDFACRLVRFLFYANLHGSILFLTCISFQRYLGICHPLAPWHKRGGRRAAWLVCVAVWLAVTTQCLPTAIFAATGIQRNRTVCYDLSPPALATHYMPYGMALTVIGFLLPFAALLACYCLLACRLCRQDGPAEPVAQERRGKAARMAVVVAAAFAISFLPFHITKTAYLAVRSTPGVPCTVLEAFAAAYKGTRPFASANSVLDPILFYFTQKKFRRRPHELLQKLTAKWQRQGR
experimentDescription: Agonist activity evaluated as change in the level of cytosolic calcium in 1321N astrocytoma cells infected with a retrovirus encoding the human P2Y6 receptor
pEC50: −log10 of the molar value.
readoutLabel: pEC50

* O=c1ccn([C@@H]2O[C@H](COP(=O)(O)OP(=O)(O)OP(=O)(O)OP(=O)(O)OC[C@@H]3O[C@H](n4ccc(=O)[nH]c4=O)[C@@H](O)[C@H]3O)[C@@H](O)[C@H]2O)c(=O)[nH]1 | 4.70
* O=c1ccn([C@@H]2O[C@H](COP(=O)(O)OP(=O)(O)OP(=O)(O)O)[C@@H](O)[C@H]2O)c(=O)[nH]1 [URIDINE TRIPHOSPHATE] | < 5.00
* O=c1ccn([C@@H]2O[C@H](COP(=O)(O)OP(=O)(O)OP(=O)(O)OP(=O)(O)OP(=O)(O)OP(=O)(O)OC[C@@H]3O[C@H](n4ccc(=O)[nH]c4=O)[C@@H](O)[C@H]3O)[C@@H](O)[C@H]2O)c(=O)[nH]1 | < 4.52
* O=c1ccn([C@@H]2O[C@H](COP(=O)(O)OP(=O)(O)OP(=O)(O)OP(=O)(O)OP(=O)(O)OC[C@@H]3O[C@H](n4ccc(=O)[nH]c4=O)[C@@H](O)[C@H]3O)[C@@H](O)[C@H]2O)c(=O)[nH]1 | < 4.52
* O=c1ccn([C@@H]2O[C@H](COP(=O)(O)OP(=O)(O)OP(=O)(O)OC[C@@H]3O[C@H](n4ccc(=O)[nH]c4=O)[C@@H](O)[C@H]3O)[C@@H](O)[C@H]2O)c(=O)[nH]1 | 6.70
* O=c1ccn([C@@H]2O[C@H](COP(=O)(O)OP(=O)(O)O)[C@@H](O)[C@H]2O)c(=O)[nH]1 [URIDINE_DIPHOSPHATE] | 7.00
* O=c1ccn([C@@H]2O[C@H](COP(=O)(O)OP(=O)(O)OC[C@@H]3O[C@H](n4ccc(=O)[nH]c4=O)[C@@H](O)[C@H]3O)[C@@H](O)[C@H]2O)c(=O)[nH]1 | < 4.52
* O=c1ccn([C@@H]2O[C@H](COP(=O)(O)OP(=O)(O)OP(=O)(O)OP(=O)(O)OP(=O)(O)OP(=O)(O)OP(=O)(O)OC[C@@H]3O[C@H](n4ccc(=O)[nH]c4=O)[C@@H](O)[C@H]3O)[C@@H](O)[C@H]2O)c(=O)[nH]1 | < 4.00

---

EC50 reference
targetOfAssay: P2Y purinoceptor 4 (Homo sapiens)
Sequence (P51582 whole entry): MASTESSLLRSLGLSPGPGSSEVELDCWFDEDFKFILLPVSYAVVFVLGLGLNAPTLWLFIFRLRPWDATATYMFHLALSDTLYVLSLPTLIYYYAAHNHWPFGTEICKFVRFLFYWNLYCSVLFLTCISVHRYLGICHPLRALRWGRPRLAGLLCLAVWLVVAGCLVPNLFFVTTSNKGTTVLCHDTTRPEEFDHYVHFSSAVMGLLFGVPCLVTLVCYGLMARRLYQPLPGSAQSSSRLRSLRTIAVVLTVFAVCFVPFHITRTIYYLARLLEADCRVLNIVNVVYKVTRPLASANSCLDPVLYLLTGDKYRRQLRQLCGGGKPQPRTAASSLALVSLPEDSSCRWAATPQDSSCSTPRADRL
experimentDescription: Agonist activity evaluated as change in the level of cytosolic calcium in 1321N astrocytoma cells infected with a retrovirus encoding the human P2Y4 receptor
Assay type: functional, cell-based
readoutLabel: EC50

• O=c1ccn([C@@H]2O[C@H](COP(=O)(O)OP(=O)(O)OP(=O)(O)OC[C@@H]3O[C@H](n4ccc(=O)[nH]c4=O)[C@@H](O)[C@H]3O)[C@@H](O)[C@H]2O)c(=O)[nH]1 = > 100000 nM
• O=c1ccn([C@@H]2O[C@H](COP(=O)(O)OP(=O)(O)OP(=O)(O)O)[C@@H](O)[C@H]2O)c(=O)[nH]1 [URIDINE TRIPHOSPHATE] = 100 nM
• O=c1ccn([C@@H]2O[C@H](COP(=O)(O)OP(=O)(O)OP(=O)(O)OP(=O)(O)OC[C@@H]3O[C@H](n4ccc(=O)[nH]c4=O)[C@@H](O)[C@H]3O)[C@@H](O)[C@H]2O)c(=O)[nH]1 = 400 nM
